- assay-procedure: Example 4: photographic speed and fog, 365 nm exposure, blue dyed emulsion T-2
- Set-up: unit not given here
- run-parameters: 0.22 x10^-3 mole/mole Ag; dye I 0.91 x10^-3
Counter-ions that a name gives are not always drawn.
property-measured: Fog
The answer should be a number; do not append a unit.

The following compounds have reported results that may help.
> print(dat)
                                   compound  property.measured  reported
1  CCSCCN(c1ccc(Cl)cc1)C(C)C(=O)O (stereo not shown) [Compound S-12, sodium salt]                Fog      0.18
2  CCSCCN(c1ccccc1)C(C)C(=O)O (stereo not shown) [Compound S-9, sodium salt]                Fog      0.21
3  CCSCCN(c1cccc(C(N)=O)c1)C(C)C(=O)O (stereo not shown)                Fog      0.10

Next compound, please.
Form: compound = CCSCCN(c1ccc(C(=O)O)cc1)C(C)C(=O)O (stereo not shown) ; Fog = 0.05

###

- assay-procedure: oxidation potential E2 of radical X by laser flash photolysis
- Format: physicochemical
- run-parameters: Table H; model compound, A and L replaced by alkyl
- Text: In this technique, the compound X-Y is oxidized by an electron transfer reaction initiated by a short laser pulse. The oxidized form of X-Y then undergoes the bond cleavage reaction to give the radical X^.cndot.. […] Where only limits on potentials could be determined, the following notation is used: <-0.90 V should be read as "more negative than -0.90 V" and >-0.40 V should be read as "less negative than -0.40 V". […]
Where a name gives a salt, the structure may show the parent alone.
property-measured: E2 (V) for XY moiety

The following compounds have reported results that may help.
> print(dat)
                                   compound  reported
1       CCSCCNC(=O)CCN(CC)c1ccc(CC(=O)O)cc1  < -0.5 V
2  CCSCCN(c1ccc(Cl)cc1)C(C)C(=O)O (stereo not drawn) [Compound S-12, sodium salt]  < -0.9 V
3  CCSCCN(c1ccc(OC)cc1)C(C)C(=O)O (stereo not drawn) [Compound S-1, sodium salt]  < -0.9 V
4  CCSCCN(c1cccc(C(N)=O)c1)C(C)C(=O)O (stereo not drawn)  < -0.9 V

Form: compound = CCSCCN(c1ccc(C(=O)O)cc1)C(C)C(=O)O (stereo not drawn) ; E2 (V) for XY moiety = < -0.9 V

Form: compound = CCSCCN(CCSCC)c1ccc(CC(=O)O)cc1 ; E2 (V) for XY moiety = < -0.5 V

Form: compound = CCSCCN(c1ccc(C)cc1)C(CC(=O)O)C(=O)O (stereo not drawn) ; E2 (V) for XY moiety = < -0.9 V

Form: compound = CCSCCN(c1ccccc1)C(C)C(=O)O (stereo not drawn) [Compound S-9, sodium salt] ; E2 (V) for XY moiety = < -0.9 V

Form: compound = CCSCCN(c1ccc(C)cc1)[C@@H](C)C(=O)[O-].[Na+] ; E2 (V) for XY moiety = < -0.9 V

###

- assay-procedure: oxidation potential E1 by cyclic voltammetry
- Format: physicochemical
- run-parameters: Table A; 80%/20% acetonitrile/water, 0.1M lithium perchlorate, 25° C.
Oxidation Potential of X--Y, E1: recorded values

> print(dat)
                                   compound       reported
1                   Cn1cc(CC(=O)O)c2ccccc21  0.68 V vs SCE
2  CC(C(=O)O)N(c1ccccc1)c1ccccc1 (centres unmarked)  0.49 V vs SCE

Form: compound = COc1cc(OC)c(C(O)C(=O)O)cc1OC (centres unmarked) ; Oxidation Potential of X--Y, E1 = 0.70 V vs SCE

Form: compound = CC(Nc1cccc(C(N)=O)c1)C(=O)O (centres unmarked) ; Oxidation Potential of X--Y, E1 = 0.58 V vs SCE

Form: compound = O=C(O)C(O)c1c2ccccc2cc2ccccc12 (centres unmarked) ; Oxidation Potential of X--Y, E1 = 0.65 V vs SCE

Form: compound = O=C(O)C(O)c1ccccc1 (centres unmarked) ; Oxidation Potential of X--Y, E1 = ~ 1.2 V vs SCE

Form: compound = CCCCN(c1ccc(Cl)cc1)C(C)C(=O)O (centres unmarked) ; Oxidation Potential of X--Y, E1 = 0.40 V vs SCE

Form: compound = CC(C(=O)O)N(CC(=O)O)c1ccccc1 (centres unmarked) ; Oxidation Potential of X--Y, E1 = 0.50 V vs SCE
